# credit: patent US10716770B2

pIC50 values by entry
biological target: human α4β2 (Homo sapiens, UniProt P17787+P43681); construct: host or cells: SH-EP1; test: Calcium flux functional assay, inhibition of nicotine response in SH-EP1-human α4β2 cells; format: cell-based; conditions: 29C/HS (29° C.-treated SH-EP1-human α4β2 cells), nicotine 1 μM; read-out: Human α4β2 Ca Flux IC50 [29C/HS]
Sequence (P43681 29-627 limits assumed): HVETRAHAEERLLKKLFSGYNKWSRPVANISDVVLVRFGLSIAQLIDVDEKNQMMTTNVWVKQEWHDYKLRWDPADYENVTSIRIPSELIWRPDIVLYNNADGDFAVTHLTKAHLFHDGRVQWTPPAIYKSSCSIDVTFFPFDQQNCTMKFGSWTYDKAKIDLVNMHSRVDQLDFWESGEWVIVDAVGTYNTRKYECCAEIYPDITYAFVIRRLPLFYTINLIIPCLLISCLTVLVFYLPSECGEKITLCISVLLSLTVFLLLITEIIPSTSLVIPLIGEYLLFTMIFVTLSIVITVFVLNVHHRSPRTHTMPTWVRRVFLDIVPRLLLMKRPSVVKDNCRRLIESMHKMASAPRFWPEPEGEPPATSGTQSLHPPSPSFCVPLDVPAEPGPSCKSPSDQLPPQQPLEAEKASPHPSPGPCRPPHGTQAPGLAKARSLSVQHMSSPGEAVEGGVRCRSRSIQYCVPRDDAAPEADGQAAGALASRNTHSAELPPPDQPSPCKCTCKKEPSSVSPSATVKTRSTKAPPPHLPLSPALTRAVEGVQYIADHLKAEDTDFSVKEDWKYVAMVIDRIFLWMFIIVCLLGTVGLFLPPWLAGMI
Sequence (P17787 26-502): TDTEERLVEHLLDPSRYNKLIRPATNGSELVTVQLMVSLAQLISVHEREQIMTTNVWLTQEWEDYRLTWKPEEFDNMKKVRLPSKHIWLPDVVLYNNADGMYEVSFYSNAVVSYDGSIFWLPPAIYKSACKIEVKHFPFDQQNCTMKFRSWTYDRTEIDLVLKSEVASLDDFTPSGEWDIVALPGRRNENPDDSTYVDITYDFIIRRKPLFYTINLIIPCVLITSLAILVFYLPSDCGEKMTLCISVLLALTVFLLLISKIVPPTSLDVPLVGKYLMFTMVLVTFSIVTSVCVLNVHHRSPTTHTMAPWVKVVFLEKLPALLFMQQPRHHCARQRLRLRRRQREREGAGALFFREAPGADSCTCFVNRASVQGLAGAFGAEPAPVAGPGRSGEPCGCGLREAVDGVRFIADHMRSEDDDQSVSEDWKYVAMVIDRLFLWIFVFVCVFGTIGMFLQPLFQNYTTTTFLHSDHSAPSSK
pIC50: −log10 of the molar value.
Quantity: pIC50

>>> observed_value("CNC1(C)C2CCC(C2)C12CCCC2 (centres unmarked)")
5.96
>>> observed_value("CN(C)C1C2(CCC2)[C@@H]2CC[C@@]1(C)C2(C)C (some centres unmarked) [drawing 37]")
5.96
>>> observed_value("CNC1C2CCC(C2)C12CCC2 (centres unmarked)")
6.00
>>> observed_value("CNC1C2(CCC2)[C@H]2CC[C@]1(C)C2(C)C (some centres unmarked) [drawing 32]")
6.15
>>> observed_value("CNC1C2CCC(C2)C12CC2 (centres unmarked)")
5.68
>>> observed_value("CN(C)C1C2(CCC2)[C@H]2CC[C@]1(C)C2(C)C (some centres unmarked) [drawing 36]")
6.85
>>> observed_value("CN(C)C1C2(CCC2)[C@H]2CC[C@]1(C)C2(C)C (some centres unmarked) [drawing 35]")
6.27
>>> observed_value("CNC1C2(CCC2)[C@@H]2CC[C@@]1(C)C2(C)C (some centres unmarked) [drawing 34]")
6.51
>>> observed_value("CNC1(C)C2CCC(C2)C12CC2 (centres unmarked)")
6.42
>>> observed_value("CNC1C2(CCC2)[C@H]2CC[C@]1(C)C2(C)C (some centres unmarked) [drawing 31]")
5.89
>>> observed_value("C1CN(C2C3CCC(C3)C23CCC3)C1 (centres unmarked)")
5.85
